test: Pharmacokinetic study in rats after oral administration of FA decoction; assay type: in vivo, Sprague-Dawley rats; conditions: male, Sprague-Dawley; rat plasma, oral FA decoction 30 g/kg; n=8
Some compounds, each annotated with its measured Tmax.

compound: COc1ccc([C@@H]2CC(=O)c3c(O)cc(O)cc3O2)cc1O [Hesperetin, hesperetin]
Tmax, h: 1.31
//
compound: O=C1C[C@@H](c2ccc(O)cc2)Oc2cc(O)cc(O)c21 [Naringenin, naringenin]
Tmax, h: 0.81
//
compound: COc1ccc2ccc(=O)oc2c1C[C@@H](O)C(C)(C)O [Meranzin hydrate, meranzin hydrate]
Tmax, h: 1.25

---

assay: Stability of the analytical solution of FA decoction at environmental temperature; type: physicochemical; conditions: FA decoction 1.7 g/mL, 4h

compound: COc1ccc([C@@H]2CC(=O)c3c(O)cc(O[C@@H]4O[C@H](CO)[C@@H](O)[C@H](O)[C@H]4O[C@@H]4O[C@@H](C)[C@H](O)[C@@H](O)[C@H]4O)cc3O2)cc1O [neohesperidin]
Stability in FA decoction, Content, mg/mL: 13.98
--
compound: COc1ccc([C@@H]2CC(=O)c3c(O)cc(O[C@@H]4O[C@H](CO[C@@H]5O[C@@H](C)[C@H](O)[C@@H](O)[C@H]5O)[C@@H](O)[C@H](O)[C@H]4O)cc3O2)cc1O [hesperidin]
Stability in FA decoction, Content, mg/mL: 4.71
--
compound: COc1ccc2ccc(=O)oc2c1C[C@@H](O)C(C)(C)O [Meranzin hydrate, meranzin hydrate]
Stability in FA decoction, Content, mg/mL: 0.33
